Below, each of the molecules is paired with its reported EC50 value.
# test.target: recombinant human GluN1/GluN2A receptor (Homo sapiens, UniProt Q05586+Q12879)
# Construct: expressed in transfected cells; host or cells: HEK293, tetracycline-inducible expression
# Sequence (Q12879 23-1464, other chains not shown): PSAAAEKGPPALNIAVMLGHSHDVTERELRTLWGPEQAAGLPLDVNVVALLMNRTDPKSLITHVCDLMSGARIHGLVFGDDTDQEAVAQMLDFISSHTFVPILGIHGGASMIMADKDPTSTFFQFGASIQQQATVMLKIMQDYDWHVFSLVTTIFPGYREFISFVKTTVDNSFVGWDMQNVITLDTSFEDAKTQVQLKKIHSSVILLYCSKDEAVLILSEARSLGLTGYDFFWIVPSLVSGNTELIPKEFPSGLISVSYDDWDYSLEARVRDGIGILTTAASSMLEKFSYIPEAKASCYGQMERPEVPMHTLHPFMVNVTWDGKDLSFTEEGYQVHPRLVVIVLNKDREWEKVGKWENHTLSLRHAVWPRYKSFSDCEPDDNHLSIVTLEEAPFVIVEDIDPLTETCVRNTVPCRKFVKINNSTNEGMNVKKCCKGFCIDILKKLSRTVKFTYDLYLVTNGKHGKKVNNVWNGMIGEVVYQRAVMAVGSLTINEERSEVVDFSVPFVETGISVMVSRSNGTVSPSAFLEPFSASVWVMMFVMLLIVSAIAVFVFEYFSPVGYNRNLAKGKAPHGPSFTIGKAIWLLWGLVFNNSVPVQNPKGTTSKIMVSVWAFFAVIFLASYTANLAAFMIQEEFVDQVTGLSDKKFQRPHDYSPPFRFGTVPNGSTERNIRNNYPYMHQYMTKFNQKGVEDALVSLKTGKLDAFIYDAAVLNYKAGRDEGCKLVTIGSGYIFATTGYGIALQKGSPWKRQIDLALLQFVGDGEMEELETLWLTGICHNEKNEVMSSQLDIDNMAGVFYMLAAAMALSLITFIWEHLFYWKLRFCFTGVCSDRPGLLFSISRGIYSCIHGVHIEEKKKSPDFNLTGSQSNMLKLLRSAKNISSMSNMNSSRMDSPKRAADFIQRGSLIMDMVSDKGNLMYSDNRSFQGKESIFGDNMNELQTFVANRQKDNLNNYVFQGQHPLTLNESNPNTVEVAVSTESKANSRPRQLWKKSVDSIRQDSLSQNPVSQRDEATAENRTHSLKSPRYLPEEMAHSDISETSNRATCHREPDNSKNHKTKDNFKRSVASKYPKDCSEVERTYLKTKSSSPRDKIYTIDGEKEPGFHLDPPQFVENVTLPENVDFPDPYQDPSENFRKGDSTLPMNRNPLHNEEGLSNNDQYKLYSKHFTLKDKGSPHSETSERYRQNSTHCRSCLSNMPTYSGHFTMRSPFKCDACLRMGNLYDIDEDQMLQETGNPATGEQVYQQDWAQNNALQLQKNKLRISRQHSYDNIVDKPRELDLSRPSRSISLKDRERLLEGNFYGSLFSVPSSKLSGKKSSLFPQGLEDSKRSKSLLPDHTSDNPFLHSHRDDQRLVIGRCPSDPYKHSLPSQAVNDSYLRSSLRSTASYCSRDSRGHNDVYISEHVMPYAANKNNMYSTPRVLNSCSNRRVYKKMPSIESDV
# assay.name: Whole-cell patch clamp of mammalian cells (Syncropatch 384i), NMDA modulation
# Format: cell-based
# measurement.setup: Table C-2; HEK293 cells, human GluN1/GluN2A; glutamate 1 μM / glycine 100 μM; -80 mV; peak amplitude increase; read-out: EC50

- molecule: "C[C@H](CC[C@@H](O)C1(C#N)CC1)[C@H]1CC[C@H]2[C@@H]3CC=C4C[C@@](C)(O)CC[C@]4(C)[C@H]3CC[C@]12C [Compound C-23]"
  obs.value: "1 to 100 nM"
- molecule: "C[C@H](CC[C@H](O)C1(C#N)CC1)[C@H]1CC[C@H]2[C@@H]3CC[C@H]4C[C@@](C)(O)CC[C@]4(C)C3=CC[C@]12C [Compound C-33]"
  obs.value: "100 to 500 nM"

Shift focus to the following entry.
Tested on recombinant human GluN1/GluN2A receptor (Homo sapiens, UniProt Q05586+Q12879), the item CC[C@]1(O)CC[C@@]2(C)[C@@H](CC[C@@H]3[C@@H]2CC[C@]2(C)[C@@H]([C@H](C)CC[C@H](O)CC#N)CC[C@@H]32)C1 [Compound C-10] showed EC50 equal to 100 to 500 nM

// data source = patent US20240368214A1
